Source: patent US4138492A

Documented TD50 across a set of compounds
Test: in vivo
Details: rat, po
Measurement name: TD50 (mg/kg)

[[record]]
compound = "COc1cc(N)c(Cl)cc1C(=O)NC1CCN(Cc2ccccc2)CC1 [Clebopride]"
measurement_name = "TD50"
unit_label = "mg/kg"
numeric_readout = 47.6

[[record]]
compound = "CN(C)CCCN1c2ccccc2Sc2ccc(Cl)cc21 [Chlorpromazine, reference compound]"
measurement_name = "TD50"
unit_label = "mg/kg"
numeric_readout = 12.3

[[record]]
compound = "CCN(CC)CCNC(=O)c1cc(Cl)c(N)cc1OC [Metoclopramide, reference compound]"
measurement_name = "TD50"
unit_label = "mg/kg"
numeric_readout = 93

